Record type: IC50 measurement. Applies to: human coagulation factor XIa (Homo sapiens (Human))
Quantity: IC50

[
  {
    "Entry Smiles": "N[C@@H](CCCCNC(=O)CN1CC=C(c2cccc3c2CCN(C(=O)[C@H]2CC(c4cccc(Cl)c4F)=NO2)[C@@H]3C(=O)Nc2ccc(C(=O)O)cc2)CC1)C(=O)O",
    "Endpoint Value": "0.16 nM"
  },
  {
    "Entry Smiles": "N[C@@H](CCC(=O)N1CC=C(c2cccc3c2CCN(C(=O)[C@H]2CC(c4cccc(Cl)c4F)=NO2)[C@@H]3C(=O)Nc2ccc(C(=O)O)cc2)CC1)C(=O)O",
    "Endpoint Value": "0.21 nM"
  },
  {
    "Entry Smiles": "C[C@H](N)C(=O)N1CC=C(c2cccc3c2CCN(C(=O)[C@H]2CC(c4cccc(Cl)c4F)=NO2)[C@@H]3C(=O)Nc2ccc(C(=O)O)cc2)CC1",
    "Endpoint Value": "0.85 nM"
  },
  {
    "Entry Smiles": "CC(C)[C@H](N)C(=O)N1CC=C(c2cccc3c2CCN(C(=O)[C@H]2CC(c4cccc(Cl)c4F)=NO2)[C@@H]3C(=O)Nc2ccc(C(=O)O)cc2)CC1",
    "Endpoint Value": "0.33 nM"
  }
]

Origin of the recorded values: patent US11541049B2
